A collection of molecules and their measured residual activity
- ASSAYED_TARGET: Ribosomal protein S6 kinase alpha-3 (Homo sapiens)
- MEASUREMENT_DESCRIPTION: Inhibition of RSK2 (unknown origin) at 1 uM incubated for 30 mins in presence of [gamma-33P]ATP by multidrop micro reagent based assay relative to control; values are per cent of control

Note to self: residual activity recorded for `CCN(CC)CCNC(=O)c1c(C)[nH]c(/C=C2\C(=O)Nc3ccc(F)cc32)c1C` was 41%

###

pIC50 values recorded for Leucine-rich repeat serine/threonine-protein kinase 2 (Homo sapiens, UniProt Q5S007)
Notebook: values listed as pIC50 are -log10 of the concentration (mol/L).

// pIC50 (Leucine-rich repeat serine/threonine-protein kinase 2 (Homo sapiens, UniProt Q5S007)) for `Cc1cncc2cccc(S(=O)(=O)N3CCCNC[C@@H]3C)c12` = 6.61

***
// pIC50 (Leucine-rich repeat serine/threonine-protein kinase 2 (Homo sapiens, UniProt Q5S007)) for CCn1c(-c2nonc2N)nc2cnc(Oc3cccc(NC(=O)c4ccc(OCCN5CCOCC5)cc4)c3)cc21 [GSK-269962A] = 5.43
